Data origin, for the record: ChEMBL document CHEMBL5137029

Assay: Cytotoxicity against human MRC5 cells assessed as cellular metabolism incubated for 72 hrs by MTT assay
Type: toxicity, cell-based
property-name: IC50 at 72 h (µM)
Numeric answer only, unit µM assumed.

# molecule, IC50 at 72 h, µM
rows = [
    ("CC[Si](CC)(CC)Oc1cc(O)cc(/C=C/c2ccc(O)cc2)c1", 21.3),
    ("CC(C)(C)[Si](C)(C)Oc1ccc(/C=C/c2cc(O)cc(O)c2)cc1", 15.5),
]

Form field: reported IC50 at 72 h of CC(C)(C)[Si](C)(C)Oc1cc(O)cc(/C=C/c2ccc(O)cc2)c1
2.7

* * *

Test: Selectivity index, ratio of IC50 for cytotoxicity against human MRC5 cells to MIC for antibacterial activity against Clostridium tetani
Type: toxicity, cell-based
Conditions: read-out: Selectivity Index
property-name: selectivity ratio
Lab note: jot the number down without any unit.

Form field: reported selectivity ratio of CC(C)(C)[Si](C)(C)Oc1ccc(/C=C/c2cc(O)cc(O)c2)cc1
2
